Cited source for all entries: paper PMC4468608

- Test system: cell lines from the Cancer Cell Line Encyclopedia (CCLE)
- protocol: High-throughput cell viability assay, CCLE cell line panel (n = 356)
- Format: cell-based, human
- settings: Homo sapiens, SK-LMS-1, SK-LMS-1, TP53 MUT
pIC50: −log10 of the molar value.
property: pIC50

In [3]: df
Out[3]:
                               input_smiles  measurement
0  COc1cc2c(cc1OC(C)C)[C@H](c1ccc(Cl)cc1)N(c1ccc(N(C)C[C@H]3CC[C@H](N4CCNC(=O)C4)CC3)cc1)C(=O)C2       < 5.10

---

- System: cell lines from the Cancer Cell Line Encyclopedia (CCLE)
- protocol: High-throughput cell viability assay, CCLE cell line panel (n = 356)
- Type: cell-based, human
- settings: Homo sapiens, 8-MG-BA, TP53 MUT
property: IC50

>>> df
                               input_smiles  property  measurement
0  COc1cc2c(cc1OC(C)C)[C@H](c1ccc(Cl)cc1)N(c1ccc(N(C)C[C@H]3CC[C@H](N4CCNC(=O)C4)CC3)cc1)C(=O)C2      IC50       > 8 µM
